Exercise: for every item that follows, state its recorded protein stability index.
B1: PPP2R2C (parent)
chain: YSSSKGSLRLCDMRAAALCDKHSK

- Variants of: B1
- assay explanation: protein stability index of a GFP-peptide fusion (GPS, HEK-293T) (PSI 1-6); higher = more stable;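 also: lentivirally expressed fusions sorted by FACS into six bins by GFP to DsRed ratio, PSI derived from sequencing read proportions per bin multiplied by bin number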
- condition notes: c terminus: a fixed tail appended
I only need the number, thanks.

Recorded protein stability index (variant D20S ): 1.81

Recorded protein stability index (variant S23H ): 2.96

Recorded protein stability index (variant K21G ): 2.12

Recorded protein stability index (variant K5V ): 1.55

Recorded protein stability index (variant A16C ): 2.56

Recorded protein stability index (variant L18D ): 1.48

Recorded protein stability index (variant S3Y ): 1.83

Recorded protein stability index (variant L10T ): 3.35

Recorded protein stability index (variant H22Q ): 1.53

Recorded protein stability index (variant R14T ): 1.98

Recorded protein stability index (variant S23T ): 1.88
